test system: NCI-H358 cells (express KRas G12C), Phospho-ERK; experiment: Cellular inhibition of KRas G12C: Phospho-ERK in NCI-H358 cells; assay type: cell-based; conditions: Homo sapiens, NCI-H358, 3 h, pERK(Thr202/Tyr204) normalized with GAPDH; NCI-H358 cells; 3 hours; read-out: IC50
pIC50: −log10 of the molar value.
Endpoint name: pIC50

Below are worked cases with known answers.
> print(dat)
                                   compound                         target.under.test  endpoint.name  experimental.result
1  Cc1cccc2cccc(N3CCc4c(nc(OC[C@@H]5CCCN5C)nc4N4CCN(C(=O)/C=C/CN5CCOCC5)[C@@H](CC#N)C4)C3)c12  NCI-H358 cells (express KRas G12C), Phospho-ERK          pIC50        6.00 to 10.00
2  C=CC(=O)N1CCN(c2nc(OCCCN3CCN(C)CC3)nc3c2CCN(c2cc(O)cc4ccccc24)C3)CC1  NCI-H358 cells (express KRas G12C), Phospho-ERK          pIC50        6.00 to 10.00
3  C=CC(=O)N1CCN(c2nc(N3CCN(CCO)CC3)nc3c2CCN(c2cc(O)cc4ccccc24)C3)CC1  NCI-H358 cells (express KRas G12C), Phospho-ERK          pIC50               < 6.00
4  C=CC(=O)N1CCN(c2nc(OC[C@@H]3CCCN3C)nc3c2CCN(c2cccc(F)c2F)C3)C[C@@H]1CC#N  NCI-H358 cells (express KRas G12C), Phospho-ERK          pIC50               < 6.00
5  C=CC(=O)N1CCN(c2nc(OCCN3CCC[C@H](OC)C3)nc3c2CCN(c2cc(O)cc4ccccc24)C3)CC1  NCI-H358 cells (express KRas G12C), Phospho-ERK          pIC50               < 6.00

Read off the recorded pIC50 for C=CC(=O)N1CCN(c2nc(OC[C@@H]3C[C@H](OC)CN3C)nc3c2CCN(c2cccc4ccccc24)C3)CC1CC#N (stereo partly drawn)
6.00 to 10.00

Identify measured pIC50 associated with "CN1CCC[C@H]1COc1nc2c(c(N3CCN(C(=O)/C=C/CN4CCOCC4)[C@@H](CC#N)C3)n1)CCN(c1cccc(Cl)c1C(F)(F)F)C2"
6.00 to 10.00

Retrieve pIC50 measured for "CCN1CCC[C@H]1COc1nc2c(c(N3CCN(C(=O)/C=C/CN(C)C)[C@@H](CC#N)C3)n1)CCN(c1cccc3ccccc13)C2" and print it.
6.00 to 10.00

Report pIC50 for C=CC(=O)N1CCN(c2nc(OCC3CCCN(C)C3)nc3c2CCN(c2cc(O)cc4ccccc24)C3)CC1 (stereo not drawn)
6.00 to 10.00

Complete the entry with pIC50 for C=CC(=O)N1CCN(c2nc(OCC(CO)N(C)C)nc3c2CCN(c2cc(O)cc4ccccc24)C3)CC1 (stereo not drawn)
6.00 to 10.00

Please give the documented pIC50 of C=CC(=O)N1CCN(c2nc(OC[C@H]3CCCC(=O)N3)nc3c2CCN(c2cc(O)cc4ccccc24)C3)CC1 (single isomer, unassigned)
< 6.00

Quickly give me recorded pIC50 for "C=CC(=O)N1CCN(c2nc(OC[C@@H]3CCCN3C(C)C)nc3c2CCN(c2cc(O)cc4ccccc24)C3)CC1"
6.00 to 10.00

Specify measured pIC50 for "C=CC(=O)N1CCN(c2nc(OC[C@@H]3[C@@H](O)CCN3C)nc3c2CCN(c2cccc4ccccc24)C3)C[C@@H]1CC#N" .
6.00 to 10.00
